System: MGC-803 (human gastric cancer) cells
Assay: MTT cell growth inhibition, solid tumor cells
Format: cell-based
Conditions: MGC-803, 72 h, MTT, read-out: IC90
Lab note - cut at 4 µg/mL for IC90: true if strictly below, false if not.

Query: Could you please tell me whether IC90 recorded for COc1ccc2cc1Oc1ccc(cc1)C[C@H]1c3cc(c(OC)cc3CCN1C)Oc1c(OCC(O)CN3CCCC(C)C3)c(OC)cc3c1[C@H](C2)N(C)CC3 (stereo partly shown) is less than 4 µg/mL?
Result: true

Query: One more molecule: COc1ccc2cc1Oc1ccc(cc1)C[C@H]1c3cc(c(OC)cc3CCN1C)Oc1c(OCC(O)CN3CCSCC3)c(OC)cc3c1[C@H](C2)N(C)CC3 (stereo partly shown)
Result: false

Query: One more molecule: `COc1ccc2cc1Oc1ccc(cc1)C[C@H]1c3cc(c(OC)cc3CCN1C)Oc1c(OS(=O)(=O)c3ccccc3)c(OC)cc3c1[C@H](C2)N(C)CC3`
Result: false

Query: One more molecule: `COc1ccc2cc1Oc1ccc(cc1)C[C@H]1c3cc(c(OC)cc3CCN1C)Oc1c(OCc3cccc(F)c3F)c(OC)cc3c1[C@H](C2)N(C)CC3`
Result: false
